B1: CPEB3 Ribozyme (parent)
chain: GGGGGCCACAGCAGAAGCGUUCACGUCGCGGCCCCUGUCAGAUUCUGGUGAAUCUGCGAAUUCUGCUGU

# Variants of: B1
# Test: self-cleavage, relative activity (ratio to wild type); higher = more cleavage; co-transcriptional
Criterion: self-cleavage meeting or surpassing 0.2. Met: MET. Not met: NOT MET.

# example entries with known answers
Mutation Code | Assigned Class
G11U C29U | NOT MET
U21C C45A | MET
A15U G65C | MET
U36C U38G | MET
C12G U61G | MET
A51U U62G | MET
G17C A51U | NOT MET
G3U G28U | NOT MET

input: In plain terms: is recorded self-cleavage at least 0.2 for C22G U36G ?
output: NOT MET

input: In plain terms: is recorded self-cleavage at least 0.2 for G17C C63G ?
output: NOT MET

input: In plain terms: is recorded self-cleavage at least 0.2 for C39G U61A ?
output: MET

input: In plain terms: is recorded self-cleavage at least 0.2 for A42U C66U ?
output: MET

From: the RNAGym collection of RNA variant scans (doi:10.7554/elife.80360)
